The values you see were collected from the supplement of paper PMC11865577.

tested on: TO-3-N3-2 (biotin conjugate); experiment: pull-down binding Z-score (relative to library population); higher = stronger binding; conditions: RNA library: Library-2
Classification scheme (pull-down binding Z-score): A (below -0.3), B (-0.3 to below 0.04), C (0.04 or more)

Use the examples below as a reference point.
sequence_string: GACUUUUCUAUUUUCCAAAAGC [hsa-mir-423]
system: TO-3-N3-2 (biotin conjugate)
class_name: B
--
sequence_string: UUUGUAUUGUGGUUCAGUACCAUGCAAA [hsa-mir-6507]
system: TO-3-N3-2 (biotin conjugate)
class_name: A
--
sequence_string: GAGUGAAUC [hsa-mir-3610]
system: TO-3-N3-2 (biotin conjugate)
class_name: A
--
sequence_string: CUUCCCAUUUAAAAGUAAUGGCACA [hsa-mir-603]
system: TO-3-N3-2 (biotin conjugate)
class_name: C
--
sequence_string: GCCGGUAGCACACCUUGUAAUGGUGUUGAAGGU [SHAPE_invitro_SARS-CoV-2_Motif_416]
system: TO-3-N3-2 (biotin conjugate)
class_name: A

Where would CCCAGCUUUGUGACUGUAAGUGUUGGA [hsa-mir-184] land among the classes by reported pull-down binding Z-score?
C

Where would UUUGUCAUUACUUUAAUUACUUUACGUUUCAUUAAUGACAAA [hsa-mir-548h-4] land among the classes by reported pull-down binding Z-score?
A

Where would UUUGCCAUUAAAAGUAAUGCGGCCAA [hsa-mir-548o-2] land among the classes by reported pull-down binding Z-score?
B

Where would GUCGUUGACAGGACACGAGUAACUCGUCUAUCUUCUGCAGGCUGC [SARS-CoV-2-Conserved-Structured-34_Interval-80-197_Motif_3] land among the classes by reported pull-down binding Z-score?
C

Where would UGGUGGUGAAUUCAUGAGUCGCCA [hsa-mir-3115] land among the classes by reported pull-down binding Z-score?
A

Where would GUGUUCACACAUAAUGUGUACACCAUGUGUGUACAC [hsa-mir-5692b] land among the classes by reported pull-down binding Z-score?
B

Where would UGUGAGAGCUACUAAGUCUUAUA [hsa-mir-8076] land among the classes by reported pull-down binding Z-score?
B

Where would CCGCCCUCGUGUCUGUGGCGGUGG [hsa-mir-663a] land among the classes by reported pull-down binding Z-score?
B

Where would CGCUAGUAGUGGCG [hsa-mir-3960] land among the classes by reported pull-down binding Z-score?
A

----------
test system: TO-3-N3 (biotin conjugate); experiment: pull-down binding Z-score (relative to library population); higher = stronger binding; conditions: RNA library: Library-2
readout: pull-down binding Z-score
Give bare numbers.

Please give pull-down binding Z-score for each item listed below.
1. UAGGAGCUGUGCCUCCUGGCCUAUUCCUGUUCGUG [hsa-mir-8056]
2. CCCAGCCUUCCAGAGUUGGUGCCAGG [hsa-mir-4476]
3. CGGGCUGAUUGCGCUAACAGUGGCCCC [hsa-mir-4783]

-0.344
0.892
-0.256

Please give pull-down binding Z-score for each item listed below.
1. CCGUAUAUAUAUAUAUAUAUAUAUAGAUAUCUCCAUAUAUAUGG [hsa-mir-620]
2. UCAGCCCCAUAUGUAUCUGAAGGCUGA [hsa-mir-5694]
3. CCCCAGGGAUGCAAAUAAGGGG [IAV_invivo_PB1_2_Motif_14+IAV_invivo_PB1_2_Motif_14]
4. CUGGCUGGUCCAGCCCCUCAGAAG [hsa-mir-6796]
5. UCCAACCUGAAAUCCUUCUGUAGGUUGAG [hsa-mir-5702]

1. -0.865
2. -0.404
3. 0.0403
4. 1.16
5. -0.291

Please give pull-down binding Z-score for each item listed below.
1. UAGAGUGCUAUCUA [SHAPE_invitro_SARS-CoV-2_Motif_352]
2. UGCUAUUACUUGUAUUUAUUUGUAAUGCA [hsa-mir-548ab]

1: -0.809; 2: -0.524
